Target: NUAK family SNF1-like kinase 2 (Homo sapiens); further: in the data inactive means no Kd found up to 30 µM
Sequence (Q9H093 whole entry): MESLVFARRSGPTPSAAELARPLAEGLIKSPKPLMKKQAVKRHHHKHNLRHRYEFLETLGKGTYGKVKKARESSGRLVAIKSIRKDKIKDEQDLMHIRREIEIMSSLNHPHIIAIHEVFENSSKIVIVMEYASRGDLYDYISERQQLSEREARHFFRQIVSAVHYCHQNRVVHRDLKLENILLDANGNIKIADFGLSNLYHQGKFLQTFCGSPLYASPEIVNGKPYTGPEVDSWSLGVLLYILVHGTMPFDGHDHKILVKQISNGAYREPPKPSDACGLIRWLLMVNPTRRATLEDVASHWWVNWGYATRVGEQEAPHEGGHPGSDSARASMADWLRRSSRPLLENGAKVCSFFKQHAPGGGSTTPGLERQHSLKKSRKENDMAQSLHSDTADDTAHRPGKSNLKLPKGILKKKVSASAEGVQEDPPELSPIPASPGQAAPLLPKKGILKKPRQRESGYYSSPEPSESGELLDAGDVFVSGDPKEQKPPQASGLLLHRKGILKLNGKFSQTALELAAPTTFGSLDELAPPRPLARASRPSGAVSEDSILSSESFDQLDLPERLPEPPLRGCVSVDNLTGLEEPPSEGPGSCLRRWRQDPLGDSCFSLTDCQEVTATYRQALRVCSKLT
Counter-ions that a name gives are not always drawn. Activity calls are given as the source filed them.
Your reply should match one of these outcome classes. True for active, False for inactive

{"columns": ["compound", "group"],
 "data": [
  ["CO[C@H]1C[C@@H]2CC[C@@H](C)[C@@](O)(O2)C(=O)C(=O)N2CCCC[C@H]2C(=O)O[C@H]([C@H](C)C[C@@H]2CC[C@@H](OP(C)(C)=O)[C@H](OC)C2)CC(=O)[C@H](C)/C=C(\\C)[C@@H](O)[C@@H](OC)C(=O)[C@H](C)C[C@H](C)/C=C/C=C/C=C/1C [RIDAFOROLIMUS]", "False"]
]}

Problem: Check the results log: what was the call for CC(=O)NCC(=O)N1[C@@H]2CC[C@H]1c1ccc(Nc3ncc(C(F)(F)F)c(NC4CCC4)n3)cc12 [PF-03814735] ?
Result: True

Problem: Check the results log: what was the call for C[C@@H](Oc1cc(C(=O)Nc2ccc(C(=O)N3CCN(C)CC3)cc2)nnc1N)c1c(Cl)ccc(F)c1Cl ?
Result: False

Problem: Check the results log: what was the call for CCS(=O)(=O)N1CCN(c2ccc(Nc3ncc(C(N)=O)c(NC4CC4)n3)cc2)CC1 [Cerdulatinib Hydrochloride] ?
Result: False

Problem: Check the results log: what was the call for C=CC(=O)Nc1cc2c(Nc3ccc(F)c(Cl)c3)ncnc2cc1C#CC(C)(C)N1CCN(C)CC1 [AV-412 FREE BASE] ?
Result: False

Problem: Check the results log: what was the call for Cn1cc(-c2cnc3ccc4ccc(CS(=O)(=O)NCc5ccccn5)cc4c(=O)c3c2)cn1 [MK-8033] ?
Result: False

Problem: Check the results log: what was the call for Cn1cc(-c2cnn3c(N)c(Br)c([C@@H]4CCCNC4)nc23)cn1 [SCH-900776] ?
Result: False

Problem: Check the results log: what was the call for Cc1cc(Nc2ncnc3ccc(NC4=NC(C)(C)CO4)cc23)ccc1Oc1ccn2ncnc2c1 [TUCATINIB] ?
Result: False

Problem: Check the results log: what was the call for O=C(Nc1nc2cccc(-c3ccc(CN4CCS(=O)(=O)CC4)cc3)n2n1)C1CC1 [FILGOTINIB] ?
Result: False

Problem: Check the results log: what was the call for COc1cc2ncnc(Oc3cccc(NC(=O)Nc4cc(C(C)(C)C(F)(F)F)on4)c3)c2cc1OC [CEP-32496] ?
Result: False

Problem: Check the results log: what was the call for CN(C[C@@H]1COCCO1)S(=O)(=O)Nc1ccc2ccc3ncc(-c4cnn(C)c4)cc3c(=O)c2c1 [MK-2461] ?
Result: False

Problem: Check the results log: what was the call for Cc1nc2cc(-c3nn(C(C)C)c4ncnc(N)c34)ccc2o1 ?
Result: False

Problem: Check the results log: what was the call for COCc1c(-c2ccc(NC(=O)Nc3cc(C(F)(F)F)ccc3F)c(F)c2)c2c(N)ncnn2c1CN1CCOCC1 ?
Result: False

Problem: Check the results log: what was the call for C[C@H]1CNCCCN1S(=O)(=O)c1cccc2cncc(F)c12 ?
Result: False

Problem: Check the results log: what was the call for Cc1cnc(NC(=O)Nc2cc(Br)c(C)cc2OC[C@@H]2CNCCO2)cn1 [RABUSERTIB] ?
Result: False

Problem: Check the results log: what was the call for CN1C/C=C/CCOc2cccc(c2)-c2ccnc(n2)Nc2cccc(c2)C1 [ZOTIRACICLIB] ?
Result: False

Problem: Check the results log: what was the call for C=CC(=O)N1CCC[C@H](n2c(=O)n(-c3ccc(Oc4ccccc4)cc3)c3c(N)ncnc32)C1 ?
Result: False

----------
molecular target: Mitogen-activated protein kinase kinase kinase 3 (Homo sapiens, UniProt Q99759); further: in the data inactive means no Kd found up to 30 µM
Sequence (Q99759 whole entry): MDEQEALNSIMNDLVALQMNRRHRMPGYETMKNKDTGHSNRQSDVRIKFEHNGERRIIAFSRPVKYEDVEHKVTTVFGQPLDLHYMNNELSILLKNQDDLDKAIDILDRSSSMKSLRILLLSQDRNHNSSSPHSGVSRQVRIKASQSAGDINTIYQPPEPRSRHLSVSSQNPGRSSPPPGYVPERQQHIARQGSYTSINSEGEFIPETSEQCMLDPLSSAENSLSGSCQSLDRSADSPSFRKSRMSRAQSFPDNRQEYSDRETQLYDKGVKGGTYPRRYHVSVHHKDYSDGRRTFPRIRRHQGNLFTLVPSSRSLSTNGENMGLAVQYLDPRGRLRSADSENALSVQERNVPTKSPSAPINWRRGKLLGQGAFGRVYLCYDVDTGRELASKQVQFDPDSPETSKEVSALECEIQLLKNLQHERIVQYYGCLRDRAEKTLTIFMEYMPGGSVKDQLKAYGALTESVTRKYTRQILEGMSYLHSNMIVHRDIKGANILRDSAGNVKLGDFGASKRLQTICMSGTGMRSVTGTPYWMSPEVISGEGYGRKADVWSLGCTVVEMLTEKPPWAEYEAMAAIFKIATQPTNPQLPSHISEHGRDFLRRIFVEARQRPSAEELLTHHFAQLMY
Calls of active or inactive are those of the source.
Your reply should match one of these outcome classes. active, inactive

# example entries with known answers
{"columns": ["molecule", "tgt", "group"],
 "data": [
  ["C=CC(=O)Nc1cc2c(Nc3ccc(F)c(Cl)c3)ncnc2cc1C#CC(C)(C)N1CCN(C)CC1 [AV-412 FREE BASE]", "Mitogen-activated protein kinase kinase kinase 3 (Homo sapiens, UniProt Q99759)", "inactive"],
  ["CN1C/C=C/CCOc2cccc(c2)-c2ccnc(n2)Nc2cccc(c2)C1 [ZOTIRACICLIB]", "Mitogen-activated protein kinase kinase kinase 3 (Homo sapiens, UniProt Q99759)", "inactive"],
  ["COc1ncc(-c2ccc3nccc(-c4ccnnc4)c3c2)cc1NS(=O)(=O)c1ccc(F)cc1F [OMIPALISIB]", "Mitogen-activated protein kinase kinase kinase 3 (Homo sapiens, UniProt Q99759)", "inactive"]
]}

Problem: Check the results log: what was the call for Cc1cccc(-c2nn3c(c2-c2ccnc4ccc(C(N)=O)cc24)CCC3)n1 [GALUNISERTIB] ?
Result: inactive

Problem: Check the results log: what was the call for O=C(Nc1nc2cccc(-c3ccc(CN4CCS(=O)(=O)CC4)cc3)n2n1)C1CC1 [FILGOTINIB] ?
Result: inactive

Problem: Check the results log: what was the call for CCOc1cc2ncc(C#N)c(Nc3ccc(F)c(Cl)c3)c2cc1NC(=O)/C=C/CN(C)C [PELITINIB] ?
Result: active

----------
target: Tyrosine-protein kinase Fer (Homo sapiens); further: in the data inactive means no Kd found up to 30 µM
Sequence (P16591 whole entry): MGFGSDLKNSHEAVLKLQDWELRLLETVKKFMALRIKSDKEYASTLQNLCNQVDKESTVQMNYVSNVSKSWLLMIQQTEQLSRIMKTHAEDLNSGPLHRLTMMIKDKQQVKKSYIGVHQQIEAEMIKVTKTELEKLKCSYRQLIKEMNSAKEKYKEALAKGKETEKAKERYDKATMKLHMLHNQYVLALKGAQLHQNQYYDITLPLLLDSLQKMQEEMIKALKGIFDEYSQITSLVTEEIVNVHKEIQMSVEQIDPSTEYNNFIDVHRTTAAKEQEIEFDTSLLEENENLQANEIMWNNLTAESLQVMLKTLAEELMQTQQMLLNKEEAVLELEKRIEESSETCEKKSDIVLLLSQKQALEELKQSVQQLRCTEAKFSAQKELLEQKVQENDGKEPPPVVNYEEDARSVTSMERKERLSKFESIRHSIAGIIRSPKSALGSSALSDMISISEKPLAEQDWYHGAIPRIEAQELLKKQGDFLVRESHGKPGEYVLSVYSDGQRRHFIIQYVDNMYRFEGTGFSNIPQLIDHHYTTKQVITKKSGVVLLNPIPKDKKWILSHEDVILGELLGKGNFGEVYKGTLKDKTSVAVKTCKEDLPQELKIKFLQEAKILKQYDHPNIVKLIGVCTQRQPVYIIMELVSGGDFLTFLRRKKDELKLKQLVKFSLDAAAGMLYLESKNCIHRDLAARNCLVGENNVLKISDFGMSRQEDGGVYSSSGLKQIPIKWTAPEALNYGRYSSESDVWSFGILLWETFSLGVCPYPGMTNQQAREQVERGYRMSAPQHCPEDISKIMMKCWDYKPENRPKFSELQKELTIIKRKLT
Activity calls are given as the source filed them.
Your reply should match one of these outcome classes. active, inactive

{"columns": ["structure_as_smiles", "tgt", "group"],
 "data": [
  ["CC(C)c1cc(CNc2nc(Nc3cc(C4CC4)[nH]n3)cc(N3CCN(C)CC3)n2)on1", "Tyrosine-protein kinase Fer (Homo sapiens)", "active"],
  ["CN(C[C@@H]1COCCO1)S(=O)(=O)Nc1ccc2ccc3ncc(-c4cnn(C)c4)cc3c(=O)c2c1", "Tyrosine-protein kinase Fer (Homo sapiens)", "inactive"],
  ["COc1ccc(S(=O)(=O)N(C(C)=O)c2ccccc2/C=C/c2cc[n+]([O-])cc2)cc1", "Tyrosine-protein kinase Fer (Homo sapiens)", "inactive"],
  ["C=CC(=O)N1CCC[C@H](n2c(=O)n(-c3ccc(Oc4ccccc4)cc3)c3c(N)ncnc32)C1", "Tyrosine-protein kinase Fer (Homo sapiens)", "inactive"]
]}

Problem: Check the results log: what was the call for Cc1nc(NC(=O)N2CCC[C@H]2C(N)=O)sc1-c1ccnc(C(C)(C)C(F)(F)F)c1 ?
Result: inactive

----------
Molecular target: Dual specificity mitogen-activated protein kinase kinase 5 (Homo sapiens, UniProt Q13163); further: in the data inactive means no Kd found up to 30 µM
Sequence (Q13163 whole entry): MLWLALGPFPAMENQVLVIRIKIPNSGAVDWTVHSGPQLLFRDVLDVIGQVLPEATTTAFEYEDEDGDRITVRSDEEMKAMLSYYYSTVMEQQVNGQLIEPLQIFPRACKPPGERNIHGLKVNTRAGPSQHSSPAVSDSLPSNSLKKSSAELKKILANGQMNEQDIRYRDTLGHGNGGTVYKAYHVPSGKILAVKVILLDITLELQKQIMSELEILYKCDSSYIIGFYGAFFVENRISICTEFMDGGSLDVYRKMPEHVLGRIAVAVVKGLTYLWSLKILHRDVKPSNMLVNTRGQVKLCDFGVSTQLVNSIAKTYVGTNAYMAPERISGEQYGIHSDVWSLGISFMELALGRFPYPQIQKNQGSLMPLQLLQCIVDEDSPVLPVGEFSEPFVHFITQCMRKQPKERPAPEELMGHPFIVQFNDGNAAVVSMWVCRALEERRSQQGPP
Calls of active or inactive are those of the source.
Attribute: Kd

{"columns": ["structure_as_smiles", "tgt", "endpoint_label", "reported_result"],
 "data": [
  ["Cc1nc(Nc2n[nH]c3c2CN(C(=O)N[C@H](CN(C)C)c2ccccc2)C3(C)C)c2sccc2n1", "Dual specificity mitogen-activated protein kinase kinase 5 (Homo sapiens, UniProt Q13163)", "Kd", "> 30 µM (inactive)"],
  ["CNC(=O)c1cccc2cc(Oc3ccnc4cc(OCC5(N)CC5)c(OC)cc34)ccc12", "Dual specificity mitogen-activated protein kinase kinase 5 (Homo sapiens, UniProt Q13163)", "Kd", "> 30 µM (inactive)"],
  ["Nc1ncnc2c1c(-c1cccc(OCc3ccccc3)c1)cn2[C@H]1C[C@@H](CN2CCC2)C1", "Dual specificity mitogen-activated protein kinase kinase 5 (Homo sapiens, UniProt Q13163)", "Kd", "0.146 µM (active)"],
  ["COc1ccc(S(=O)(=O)N(C(C)=O)c2ccccc2/C=C/c2cc[n+]([O-])cc2)cc1", "Dual specificity mitogen-activated protein kinase kinase 5 (Homo sapiens, UniProt Q13163)", "Kd", "> 30 µM (inactive)"],
  ["C[C@H]1CNCCCN1S(=O)(=O)c1cccc2cncc(F)c12", "Dual specificity mitogen-activated protein kinase kinase 5 (Homo sapiens, UniProt Q13163)", "Kd", "> 30 µM (inactive)"],
  ["Cc1cnc(NC(=O)Nc2cc(Br)c(C)cc2OC[C@@H]2CNCCO2)cn1", "Dual specificity mitogen-activated protein kinase kinase 5 (Homo sapiens, UniProt Q13163)", "Kd", "> 30 µM (inactive)"],
  ["COc1cc([C@@H]2c3cc4c(cc3[C@H](O)[C@H]3COC(=O)[C@@H]23)OCO4)cc(OC)c1OC", "Dual specificity mitogen-activated protein kinase kinase 5 (Homo sapiens, UniProt Q13163)", "Kd", "> 30 µM (inactive)"],
  ["O=C(Nc1nc2cccc(-c3ccc(CN4CCS(=O)(=O)CC4)cc3)n2n1)C1CC1", "Dual specificity mitogen-activated protein kinase kinase 5 (Homo sapiens, UniProt Q13163)", "Kd", "> 30 µM (inactive)"]
]}

Problem: Record request: Kd value, item NC(=O)Nc1cc(-c2cccc(F)c2)sc1C(=O)N[C@H]1CCCNC1
Result: 0.147 µM (active)

Problem: Record request: Kd value, item C[C@@H](Oc1cc(C(=O)Nc2ccc(C(=O)N3CCN(C)CC3)cc2)nnc1N)c1c(Cl)ccc(F)c1Cl
Result: > 30 µM (inactive)

Problem: Record request: Kd value, item Cn1ncc(Cl)c1-c1cc(C(=O)N[C@H](CN)Cc2ccc(F)c(F)c2)oc1Cl
Result: > 30 µM (inactive)

Problem: Record request: Kd value, item Cc1cc(Nc2ncc(Cl)c(Nc3ccccc3S(=O)(=O)C(C)C)n2)c(OC(C)C)cc1C1CCNCC1
Result: > 30 µM (inactive)

Problem: Record request: Kd value, item CN(C[C@@H]1COCCO1)S(=O)(=O)Nc1ccc2ccc3ncc(-c4cnn(C)c4)cc3c(=O)c2c1
Result: > 30 µM (inactive)

Problem: Record request: Kd value, item COc1cc2c(Nc3ccc(Cl)c(Cl)c3F)ncnc2cc1OC[C@@H]1C[C@@H]2CN(C)C[C@@H]2C1
Result: 65.7 µM (active)

Problem: Record request: Kd value, item CCCCCCCCCCCCCCCCCCOP(=O)([O-])OC1CC[N+](C)(C)CC1
Result: > 30 µM (inactive)

Problem: Record request: Kd value, item CCn1c(C(=O)N(C2CC2)C2CC2)cc2c3c(ncn3C)c(Nc3cc(C)n(C)n3)nc21
Result: > 30 µM (inactive)

Problem: Record request: Kd value, item CCOc1cc2ncc(C#N)c(Nc3ccc(F)c(Cl)c3)c2cc1NC(=O)/C=C/CN(C)C
Result: > 30 µM (inactive)

Problem: Record request: Kd value, item CCNC(=O)C#Cc1ccc2c(c1)NC(=O)/C2=C(\Nc1ccc(CN(C)C)cc1)c1ccccc1
Result: 0.177 µM (active)
